target: B1 bradykinin receptor (Homo sapiens, UniProt P46663); test: Displacement of [3H]Lys-bradykinin from human recombinant bradykinin B1 receptor expressed in CHO cells by scintillation counting
Each item that follows carries a reported Ki.

| molecule | Ki / nM |
| --- | --- |
| Cc1ccc(S(=O)(=O)N2CCc3ccccc3C2CC(=O)NCCc2ccc(C3=NCCN3)cc2)cc1 (racemic) | 67 |
| COc1cc2c(cc1OC)C(CC(=O)NCCc1ccc(C3=NCCN3)cc1)N(S(=O)(=O)c1ccc(C)cc1)CC2 (racemic) | 2000 |

---

Each item that follows carries a reported inhibition.
Molecular target: B1 bradykinin receptor (Homo sapiens)
Sequence (whole entry): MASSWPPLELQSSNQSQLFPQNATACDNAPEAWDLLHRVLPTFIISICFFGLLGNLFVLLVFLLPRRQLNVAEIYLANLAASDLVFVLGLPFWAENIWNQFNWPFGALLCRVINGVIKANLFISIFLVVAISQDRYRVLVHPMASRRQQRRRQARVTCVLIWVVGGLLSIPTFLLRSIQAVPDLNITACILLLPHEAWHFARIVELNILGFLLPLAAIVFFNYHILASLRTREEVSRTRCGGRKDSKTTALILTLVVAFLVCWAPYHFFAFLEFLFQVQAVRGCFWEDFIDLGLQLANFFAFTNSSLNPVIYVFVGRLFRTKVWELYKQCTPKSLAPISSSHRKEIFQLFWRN
Experiment: Antagonist activity against human recombinant bradykinin B1 receptor expressed in CHO cells assessed as inhibition of [Lys-des-Arg9]bradykinin-induced cytoplasmic calcium release at 5 uM by fluorimetry
Format: functional, cell-based

| molecule | inhibition |
| --- | --- |
| Cc1ccc(S(=O)(=O)N2CCc3ccccc3C2CC(=O)NCCCCNC(=N)N)cc1 (racemic) | 44.9% |
| Cc1ccc(S(=O)(=O)N2CCc3ccccc3C2CC(=O)NCCCCCCN)cc1 (racemic) | 16.3% |
| COc1cc2c(cc1OC)C(CC(=O)NCCCCCCN)N(S(=O)(=O)c1ccc(C)cc1)CC2 (racemic) | 10.9% |
| Cc1ccc(S(=O)(=O)N2CCc3ccccc3C2CC(=O)NC2CCCCCC2)cc1 (racemic) | 37% |
| COc1cc2c(cc1OC)C(CC(=O)NCCCCN)N(S(=O)(=O)c1ccc(C)cc1)CC2 (racemic) | 15.3% |
| COc1cc2c(cc1OC)C(CC(=O)NCCCCNC(=N)N)N(S(=O)(=O)c1ccc(C)cc1)CC2 (racemic) | 19% |
| COc1cc2c(cc1OC)C(CC(=O)NC1CCCCCC1)N(S(=O)(=O)c1ccc(C)cc1)CC2 (racemic) | 9.3% |
| Cc1ccc(S(=O)(=O)N2CCc3ccccc3C2CC(=O)NCCc2ccc(C3=NCCN3)cc2)cc1 (racemic) | 99% |
| Cc1ccc(S(=O)(=O)N2CCc3ccccc3C2CC(=O)NCCCCN)cc1 (racemic) | 15.9% |
| COc1cc2c(cc1OC)C(CC(=O)NCCc1ccc(C3=NCCN3)cc1)N(S(=O)(=O)c1ccc(C)cc1)CC2 (racemic) | 85.7% |
